compound | melting point
Clc1ccc(-c2noc(Cl)n2)cc1 | 59 to 61 °C
COc1ccc(Cl)cc1C(F)(F)C(=O)O | 110 to 112 °C
CC(=O)Nc1ccccc1OCc1ccc(C(=O)O)o1 | 179 to 181 °C
ClCc1ncc(-c2ccc(Cl)cc2)o1 | 53 to 57 °C
COc1ccc(C(=O)Cc2ccc(F)cc2)cc1 | 106 to 108 °C
CC1NCCn2c(Cl)ccc21 (stereo not given) | 53 to 55 °C
CC(C)(C(=O)O)c1ccc(N)cc1 | 165 to 167 °C
O=C(CCCl)NC(=O)NCc1ccccc1 | 117 to 119 °C
O=C(COc1ccccc1)Nc1ccc(O)cc1C(=O)O | 254 to 256 °C
CCC(Br)C(=O)Nc1cc(C)on1 (stereo not given) | 103 to 105 °C
Clc1nc(CN2CCCCC2)nc2scc(-c3ccccc3)c12 | 79 to 81 °C
COCc1ccccc1S(N)(=O)=O | 59 to 61 °C
S=c1[nH][nH]c(=Nc2cccc(Br)c2)s1 | 225 to 227 °C
Nc1nnc(CC(F)(F)F)o1 | 132 to 134 °C
O=C(NO)c1ccc(Cl)cc1 | 170 to 172 °C
CC(C)(C)c1ccc(C(O)CCC(=O)O)cc1 (stereo not given) | 127 to 129 °C
CS(=O)(=O)Nc1cccc(C(=O)O)c1 | 230 to 232 °C
CCOC(=O)c1c(N)sc(C(=O)N(C)C)c1C | 118 to 122 °C
COC(=O)c1cc(C(=O)OC)[nH]n1 | 149 to 151 °C
CCOC(=O)c1cc2c(F)cc(Br)cc2[nH]1 | 194 to 196 °C
CC(C)(C)C(=O)C=Cc1ccc(Br)s1 | 44 to 46 °C
O=[N+]([O-])c1ccc(S(=O)(=O)Cl)c(Cl)c1 | 75 to 77 °C
Cn1nnnc1SCC(=O)Nc1ccc(C(=O)O)cc1 | 190 to 192 °C
Cc1nc(Cl)cc(-c2ccncc2)n1 | 111 to 113 °C
CC(CO)NC(=O)C1=Cc2cc(Br)ccc2OC1 (stereo not given) | 157 to 159 °C
CC(C)NS(=O)(=O)c1cccc(CN)c1 | 98 to 100 °C
O=C(O)Cc1csc(-c2ccc3c(c2)OCCO3)n1 | 188 to 190 °C
Cc1ccc(S(=O)(=O)CCC(=O)O)cc1 | 108 to 110 °C
O=C(O)c1ccn(-c2ccccc2[N+](=O)[O-])n1 | 223 to 225 °C
CN1CCOC(C(=O)c2ccc(Cl)cc2)C1 (stereo not given) | 59 to 61 °C
O=C(O)CCn1c(=O)[nH]c(=O)c2ccccc21 | 231 to 233 °C
Cc1ccc(N2CC(C(=O)O)CCC2=O)cc1C (stereo not given) | 184 to 186 °C
CC(C)S(=O)(=O)C(C)C(=O)O (stereo not given) | 96 to 98 °C
O=C(O)c1cc(-c2ccco2)nc2ccccc12 | 209 to 211 °C
NC(=O)c1ccn(-c2cccc(N)c2)n1 | 177 to 179 °C
O=C(O)c1cnc(-c2ccncc2)s1 | 307 to 309 °C
CCc1cc2c(=O)[nH]cnc2s1 | 183 to 185 °C
CNS(=O)(=O)c1ccc(C)c(C(=O)O)c1 | 170 to 172 °C
Cc1nn(C)c(C)c1NC(=O)C(C)Cl (stereo not given) | 120 to 122 °C
O=C(O)c1ccc(I)c(Cl)c1 | 218 to 220 °C

====

Overview of reported melting point across a group of compounds:

smiles.string | melting point
CCS(=O)(=O)c1ccc(Cl)c(C(=O)O)c1 | 144 to 146 °C
Brc1csc(Br)n1 | 80 to 84 °C
O=C(CCl)Nc1cccc(CSc2ccccn2)c1 | 90 to 92 °C
COC(=O)c1nscc1N | 54 to 56 °C

====

Overview of reported melting point across a group of compounds:
measured.endpoint: melting point

smiles.string | measured.endpoint | result
NCc1ccc(C(=O)N2CCNC(=O)C2)cc1 | melting point | 143 to 145 °C
N#CCc1nc2cc(Cl)ccc2s1 | melting point | 155 to 157 °C
Cc1sc(N)nc1-c1c[nH]c2ncccc12 | melting point | 240 to 242 °C
Cn1cc(C(=O)O)cn1 | melting point | 203 to 205 °C

====

Overview of reported melting point across a group of compounds:

compound | melting point
NNc1ccc(S(=O)(=O)C(F)F)cc1 | 72 to 74 °C
COC(=O)c1sc(N)nc1C1CC1 | 184 to 186 °C
CC(C)(C)OC(=O)NCCC1CNc2ccccc21 (stereo unspecified) | 90 to 92 °C
CC(C)c1cccc(S(N)(=O)=O)c1 | 74 to 76 °C
Cc1nc2nc(S)nn2c(C)c1CC(=O)O | 226 to 228 °C
CSc1cccc(N)c1C | 44 to 46 °C

====

Overview of reported melting point across a group of compounds:

smiles.string | melting point
CC(=O)c1nnn(-c2cccc(Cl)c2)c1C | 82 to 84 °C
COc1cc(NC(=O)CCl)cc(OC)c1OC | 104 to 106 °C
CNc1ncc(Br)cn1 | 116 to 118 °C
CC(C)(c1ccccc1)c1nnc(N)o1 | 196 to 198 °C
NC(=O)c1cc(S(=O)(=O)N2CCCC2)ccc1O | 254 to 260 °C
S=C1CCCCN1 | 92 to 94 °C
O=S(=O)(c1ccc(Cl)nc1)N(Cc1ccccc1)Cc1ccccc1 | 106 to 108 °C
O=C(O)c1ccc(NS(=O)(=O)c2ccc(Br)cc2)cc1 | 267 to 269 °C
O=C(O)c1ccc(S(=O)(=O)N2CCCCC2)cc1 | 270 to 272 °C

====

compound | melting point
Cc1ccc2oc(C(=O)O)cc2c1 | 243 to 245 °C
CC(C)(C#N)Cc1ccccc1 | 47 to 49 °C
Fc1cccc(F)c1-n1c(S)nc2ccccc21 | 255 to 257 °C
O=C(O)C1(c2ccccc2)CCOCC1 | 128 to 130 °C
CC(C)(C)OC(=O)Cc1cccc(N)c1 | 47 to 49 °C
CN(C(=O)c1ccccc1N)C1CCCCC1 | 141 to 143 °C
O=S1(=O)CC(SCc2ccccc2)c2ccccc21 (configuration not stated) | 72 to 74 °C
CN1CCc2nc(N)c(C#N)cc2C1 | 215 to 217 °C
CC(C)S(=O)(=O)Cc1cccc(N)c1 | 113 to 115 °C
CCOC(=O)c1cn2c(n1)NCCC2 | 171 to 173 °C
Cc1cccc(N2CCN(Cc3ccc(N)cc3)CC2)c1 | 103 to 105 °C
O=C1C=C(Br)C(=O)N1c1ccccc1 | 159 to 161 °C
Brc1ccc(Oc2ncccn2)cc1 | 114 to 116 °C
O=C(O)c1cccc(CS)c1 | 104 to 106 °C
CCOc1ccccc1C(=O)N1CCNCC1 | 82 to 84 °C
COc1ccc(Oc2ccc(C=O)cc2[N+](=O)[O-])cc1 | 67 to 69 °C
Cc1cc([N+](=O)[O-])cc(C)c1N | 161 to 163 °C
Nc1cccc(-c2n[nH]c3c2CCCC3)c1 | 159 to 161 °C
O=C(O)c1cc(S(=O)(=O)N2CCC2)ccc1Cl | 172 to 174 °C
Cc1cc(N)ccc1NC(=O)c1ccco1 | 173 to 175 °C
Nc1[nH]nc(CCC2CCCCC2)c1-c1ccc(Br)cc1 | 168 to 170 °C
COCCOc1ccc(C(=O)O)cn1 | 134 to 136 °C
CCc1nnsc1C(=O)O | 125 to 133 °C
O=C(O)C=Cc1ccc(S(=O)(=O)N2CCOCC2)cc1 | 249 to 251 °C
CS(=O)(=O)N1CCCC(CCl)C1 (configuration not stated) | 64 to 66 °C
CCOc1cn(-c2ccccc2)nc1C(=O)O | 142 to 144 °C
NS(=O)(=O)c1ccc(C(=O)O)c(F)c1 | 189 to 191 °C
Cc1cc(S(N)(=O)=O)cc([N+](=O)[O-])c1C | 180 to 182 °C
O=C(CCl)c1ccc2c(c1)-c1cc(C(=O)CCl)ccc1C2 | 200 to 202 °C
CCN(CC)C(=O)c1cccc(O)c1 | 80 to 82 °C
CC1(c2ccc(Br)cc2)NC(=O)N(CC(=O)O)C1=O (configuration not stated) | 247 to 249 °C
CC(C)Sc1ccc(C(=O)O)cc1 | 139 to 141 °C
CCOC(=O)C1=C(CBr)C(C)(C)OC1=O | 87 to 89 °C
OC(c1cccc(F)c1)c1ccccn1 (configuration not stated) | 78 to 80 °C
CC(=O)Oc1cc(C)ccc1C(=O)O | 139 to 141 °C
CCOC(=O)/C(C#N)=C\Nc1ccc(Cl)cc1 | 141 to 143 °C
Clc1ccnc2ccc(Br)cc12 | 111 to 113 °C
